Target: SaveOBP9 (Sitobion avenae, UniProt A0A1I9ZLB6)
Sequence (A0A1I9ZLB6 entry or part of it): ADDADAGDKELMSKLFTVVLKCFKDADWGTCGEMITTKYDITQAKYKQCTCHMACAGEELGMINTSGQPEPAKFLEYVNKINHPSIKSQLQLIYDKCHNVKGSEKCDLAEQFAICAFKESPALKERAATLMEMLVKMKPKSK
Experiment: Fluorescence competitive ligand binding assay with probe 1-NPN
Conditions: IC50, pH 7.4; 1-NPN probe
Flag rule - IC50 less than 40 µM flags condition met; the remaining entries get condition not met.

• C=C1CC/C=C(\C)CC[C@@H]2[C@@H]1CC2(C)C = condition not met

For this compound, is IC50 lower than 40 µM? `O=Cc1ccccc1`
condition not met

Below 40 µM on IC50? Entry C=CCCN=C=S [3-Butenyl isothiocyanate]
condition not met

Identify whether the compound CCC/C=C/C=O [trans-2-Hexen-1-al] records IC50 below 40 µM.
condition not met

Check if IC50 falls below 40 µM for CC1=CCC2CC1C2(C)C (stereo not drawn) .
condition met

Please let me know if `CC1=CC[C@@H](C(C)(C)O)CC1` shows IC50 below 40 µM.
condition met

----------
Biological target: UniProtKB A0A1I9ZLB6
Test: Fluorescence competitive ligand binding assay with probe 1-NPN
Conditions: Ki, pH 5.0; 1-NPN probe
RESULT_TYPE: Ki (µM)
Quick note: give the figure in µM, leave out the unit.

Use these answered entries as a reference point.
- CCCCCC=O: 15.2
- CCC/C=C/C=O [trans-2-Hexen-1-al]: 19.5

Data request, read-out Ki, for `O=Cc1ccccc1`
37

Which Ki value belongs to CC1=CCC2CC1C2(C)C (stereo not shown) ?
24.6

Which Ki value belongs to CCC/C=C/CO [trans-2-Hexen-1-ol] ?
19.6

Which Ki is reported for this molecule? C=CCCN=C=S [3-Butenyl isothiocyanate]
23.8

Which Ki is reported for this molecule? `CC1=CC[C@@H](C(C)(C)O)CC1`
33.8

State the recorded Ki for this entry: C=CC(C)(O)CCC=C(C)C (stereo not shown)
10.7

Using the record for `C=C1CC/C=C(\C)CC[C@@H]2[C@@H]1CC2(C)C` , report its Ki.
562

// lookup Ki for COC(=O)c1ccccc1O [Methyl salicylate]
21.9

What value of measured Ki is listed for CC/C=C\CCO [cis-3-Hexen-1-ol] ?
33.3

Look up Ki for this molecule: C=C1CCC2CC1C2(C)C (stereo not shown)
25.1

// query Ki value for entry `c1ccc2ccccc2c1`
27.4

----------
Target: SaveOBP9 (Sitobion avenae)
Test: Fluorescence competitive ligand binding assay with probe 1-NPN
Conditions: pH 7.4; 1-NPN probe; read-out: IC50
RESULT_TYPE: IC50 (µM)
Supply the numeric figure in µM, leaving out any unit text.

Completed entries (count: 5):
- CC(=O)c1ccccc1: 13
- C=CC(O)CCCCC (stereo not shown): 24.2
- CCCCCCCCCCCCCCCC: 10.9
- C=C/C(C)=C/C/C=C(\C)CCC=C(C)C: 10.3
- CCCCCCCCCCCCCCC: 12.8

Please give the measured IC50 for this compound: `C=CC(=C)CCC=C(C)C`
12.2

# input compound: `CCCCCCCCC=O` ; wanted: its IC50
39.8

For the compound CC12CCC(CC1=O)C2(C)C (racemic) [(±)-Camphor] , what IC50 is on record?
48.2

Using the record for CC/C=C\CCOC(C)=O [cis-3-Hexenyl acetate] , report its IC50.
29.7

GET /values?readout=IC50&item= CC1=CCC2C(C1)C2(C)C (single isomer, unassigned; (+)) [(+)-3-Carene]
14.7

The reported measurements were obtained from paper PMC7664216.
